# TARGET: HLA-A*02:01 (Homo sapiens, UniProt P04439, D140Y/D185E/D98H/E176V/E277Q/G131W/G231S/I119V/I121R/I166T/I218V/L300P/L318F/N151K/N90K/P208A/P217A/Q86G/Q94H/R138H/R169H/T345S)
# TEST SUMMARY: MHC binding assay (UV-ligand exchange, beta2m ELISA)
# APPLIED CONDITIONS: binding to HLA-A*02:01, β2m ELISA
PROPERTY NAME: Peptide exchange (MHC class I binding score, peptide exchange yield)

>>> print(df.to_string())
                                  substance           result
0  219 (GVVPTIQKV; listed as Homo sapiens) [compound 219]   ++ (≧20% = ++)
1  210 (GLAGDNIYL; listed as Homo sapiens) [compound 210]  +++ (≧50 = +++)
2  195 (VIIQNLPAL; listed as Homo sapiens) [compound 195]  +++ (≧50 = +++)
3  52 (TIGIPFPNV; listed as Homo sapiens) [compound 52]   ++ (≧20% = ++)

For every record below, what is its Peptide exchange (MHC class I binding score, peptide exchange yield)?
1. 13 (RLHDENILL; listed as Homo sapiens) [compound 13]
2. 59 (ALADGIKSFLL; listed as Homo sapiens) [compound 59]
3. 14 (YTFSGDVQL; listed as Homo sapiens) [compound 14]
4. 22 (LMYPYIYHV; listed as Homo sapiens) [compound 22]

Given back:
1. +++ (≧50 = +++)
2. +++ (≧50 = +++)
3. +++ (≧50 = +++)
4. +++ (≧50 = +++)

Hi there! I need Peptide exchange (MHC class I binding score, peptide exchange yield) for each item below, if you can.
1. 110 (QIQGQVSEV; listed as Homo sapiens) [compound 110]
2. 217 (LLWPSSVPA; listed as Homo sapiens) [compound 217]
3. 245 (ALLEEEEGV; listed as Homo sapiens) [compound 245]
4. 192 (TLLPSSGLVTL; listed as Homo sapiens) [compound 192]

Given back:
1. ++ (≧20% = ++)
2. +++ (≧50 = +++)
3. ++ (≧20% = ++)
4. ++ (≧20% = ++)
